List of Kd values.
# TARGET DESC: T1, CsTx-13 (Cupiennius salei, UniProt P83919)
# T1 chain 1: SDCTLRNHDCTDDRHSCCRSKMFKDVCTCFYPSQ
# T1 chain 2: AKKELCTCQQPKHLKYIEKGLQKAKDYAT
# ASSAY NAME: microscale thermophoresis
Quote the value and follow it with the unit of measurement.

{"BINDER": "CsTx-1 (protein) SCIPKHEECTNDKHNCCRKGLFKLKCQCSTFDDESGQPTERCACGRPMGHQAIETGLNIFRGLFKGKKKNKKTK", "Kd": "430 nM"}

Lab note: next binder to report on.
Query: Hello, please tell me recorded Kd for this one: CsTx-9 (protein) KDDKNCIPKHHECTNDKKNCCKKGLTKMKCKCFTVADAKGATSERCACDSSLLQKFGFTGLHIIKGLF
Reply: 370 nM
